All figures here come from the supplement of paper PMC10567573.

B1: OR3A1 (parent)
chain: PMYFFLGNLSVLDVGCISVTVPSM

Variants of: B1
Assay Summary: protein stability index of a GFP-peptide fusion (GPS, HEK-293T) (PSI 1-6); higher = more stable;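 also: lentivirally expressed fusions sorted by FACS into six bins by GFP to DsRed ratio, PSI derived from sequencing read proportions per bin multiplied by bin number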
Condition Parameters: c terminus: a fixed tail appended
Readout Type: protein stability index

> print(dat)
    variant.label  quantitative.readout
 1           P22M                  2.94
 2           L12C                  2.83
 3           V21K                  3.59
 4           G15W                  2.87
 5            L9S                  1.99
 6            L9E                   3.5
 7           S10E                  3.25
 8           T20I                  2.43
 9           S10C                  2.81
10            N8G                  2.71
11           C16M                  3.08
12           V19I                   2.3
13           V11Y                  2.86
14           V11E                  3.18
15            L9R                  3.52
16           V11S                  3.56
17           I17M                  2.76
18            M2K                  3.24
19           S23R                  2.15
20            P1R                  3.81
21           M24W                  3.96
22           C16S                  3.15
23           S18E                   2.7
24            F5H                  2.64
25           T20D                  1.12
26            G7N                  1.99
27            M2I                  2.31
28            Y3T                  4.47
29            F4S                  1.91
30           L12T                   4.2
31           S23G                  2.99
32            F5D                  2.06
33           L12F                  2.22
34           T20N                  2.96
35           I17D                  3.15
36           M24N                  3.98
37           S18I                  3.52
38           S23C                  2.56
39           D13N                   2.1
40           V19R                  2.38
41           S18T                  2.94
42           C16F                  2.85
43           S23D                  4.24
44            P1Y                   2.1
